# Tested on: DMS 114 small cell lung
# assay_remarks: NCI tumour cell line growth inhibition, 48 h
In this section we review reported TGI values for a set of molecules.

Some entries whose results are on file:
INSERT INTO assay_data (molecule, test_system, property, value_measured) VALUES
  ('C[C@]12Cc3conc3C(O)=C1CC[C@@H]1C2CC[C@@]2(C)C1CC[C@]2(C)O (stereo partly specified)', 'DMS 114 small cell lung', 'TGI', '43.4 µM'),
  ('c1ccc2c(c1)SCCc1cn[nH]c1-2', 'DMS 114 small cell lung', 'TGI', '> 100 µM'),
  ('O=[N+]([O-])c1cccc(S(=O)(=O)N/N=C/c2cc(I)cc([N+](=O)[O-])c2O)c1', 'DMS 114 small cell lung', 'TGI', '53.8 µM'),
  ('CC[C@]1(O)C[C@H]2CN(CCc3c([nH]c4ccccc34)[C@@](C(=O)OC)(c3cc4c(cc3OC)N(C)[C@H]3[C@@](O)(C(=O)OC)[C@H](OC(C)=O)[C@]5(CC)C=CCN6CC[C@]43[C@@H]65)C2)C1', 'DMS 114 small cell lung', 'TGI', '0.00581 µM');

Shift focus to the following entry.
Inquiry: I would be grateful if you could share the reported TGI for COC(=O)c1ccc(C(=O)OC)c2nc3cc(Cl)ccc3nc12 .
Reply text: > 100 µM

* * *

# System: SK-MEL-2 melanoma
# assay_remarks: NCI tumour cell line growth inhibition, 48 h
Entries and their measured TGI follow.
# unit: µM | format: bare number

INSERT INTO measurements (chemical_smiles, property, value_measured) VALUES
  ('O=C(N/N=C/c1cc(Cl)ccc1O)c1ccccc1Nc1ccnc(C(F)(F)F)c1', 'TGI', 19.9),
  ('O=c1cc(-c2ccccc2)oc2cc(OCCCCCN3CCOCC3)cc(O)c12', 'TGI', 91.7),
  ('Cc1cccc(Nc2nc3ccccc3nc2NS(=O)(=O)c2ccccc2)c1', 'TGI', 68.6);

Inquiry: Item COC(=O)c1c2c(c(C)[n+]([O-])c1C)C(=O)C(NCc1ccc(F)cc1)=CC2=O has what recorded TGI?
Reply text: 4.03

Inquiry: TGI lookup needed for Cc1ccc(Nc2nc(=O)c3c([nH]c4ccccc43)s2)cc1 , thanks.
Reply text: 31.3

* * *

Each entry below lists one item and its recorded TGI value.
# Test system: HCT-116 colon
# assay_remarks: NCI tumour cell line growth inhibition, 48 h

INSERT INTO assay_data (molecule, value_measured) VALUES
  ('COc1ccc2cc(CN3CCC(C4CCN(Cc5ccc6cc(OC)ccc6c5)CC4)CC3)ccc2c1', '10.6 µM'),
  ('COC(=O)c1sc2c(c1C(=O)OC)C(=NC(C)(C)C)SC2=NC(C)(C)C', '30.5 µM'),
  ('Cc1cc(N(CCC#N)CCC#N)ccc1/C=C(\NC(=O)/C=C/c1ccccc1)C(=O)Nc1ccc(Cl)cc1', '> 100 µM'),
  ('Cc1c(NC(=O)CSC(=S)N(C)C)c(=O)n(-c2ccccc2)n1C', '> 100 µM'),
  ('Cc1nn(Cc2ccccc2)cc1C(=O)Nc1sc2c(c1C(N)=O)CCC(=O)C2', '4.33 µM');

Inquiry: Tell me the measured TGI of CC1CC(=NC2CCCCC2)Nc2ccccc2N1Cc1ccccc1 (centres undefined) , please.
Reply text: > 35.6 µM

Inquiry: Fill blank: measured TGI of the molecule CN(C(=S)Cc1ccc(Cl)c(Cl)c1)C1CCCC[C@@H]1N1CCCC1 (some centres undefined) is ____.
Reply text: > 100 µM

Inquiry: Look up TGI: CO[C@@H]1C[C@H]2[C@@H]3CC[C@H]([C@H](C)COC(C)=O)[C@@]3(C)CC[C@@H]2[C@@]2(C)CC[C@H]3C[C@]312
Reply text: > 100 µM

Inquiry: // query TGI value for entry COc1cccc(N2CCN(c3ncnc4cc[nH]c34)CC2)c1
Reply text: > 100 µM

* * *

Listed here: items and their measured TGI.
# System: OVCAR-3 ovarian
# assay_remarks: NCI tumour cell line growth inhibition, 48 h

For orientation, consider the following solved cases.
INSERT INTO results (molecule, property, value_measured) VALUES
  ('CNC(=O)CCCNC(=O)CCCCC(=O)N(C)C', 'TGI', '> 100 µM'),
  ('CCCCSc1nc(N)c2cn[nH]c2n1', 'TGI', '35.1 µM'),
  ('Cn1c2c(c3ccccc3c1=O)C(=O)c1ccccc1-2', 'TGI', '> 100 µM'),
  ('O=C(O)/C(Cl)=C(Cl)/C=N/NC(=O)c1cc2ccccc2cc1O', 'TGI', '> 100 µM'),
  ('O=c1cc(-c2ccccc2)oc2cc(OCCCCCN3CCOCC3)cc(O)c12', 'TGI', '> 100 µM');

Inquiry: What value of TGI has been reported for the following molecule? CSc1ncc2c(C#N)c3[nH]c4ccccc4n3c(=O)c2n1
Reply text: 45.2 µM

Inquiry: Look at this molecule and give its reported TGI. CCCCCCc1cc2cc(-c3cn4c(n3)sc3ccccc34)c(=O)oc2cc1O
Reply text: > 100 µM

Inquiry: Fill blank: measured TGI of the molecule CCCCCCCCCC(=O)NC(CCC(=O)N(CCNC(=O)c1nc(-c2ccccc2)oc1-c1ccccc1)Cc1ccccc1)C(=O)O (stereo not given) is ____.
Reply text: 30.1 µM

Inquiry: Can you share its TGI? I mean this molecule: CCOC(=O)c1csc(C(CSCc2ccc(OC)cc2)N2C(=O)c3ccccc3C2=O)n1 (stereo not given)
Reply text: > 100 µM

Inquiry: TGI for COc1ccc(/C=C2\Sc3nnc(-c4ccccc4)n3N=C2c2cc(F)c(Cl)cc2Cl)cc1OC ?
Reply text: > 100 µM

* * *

# System: SF-268 CNS
# assay_remarks: NCI tumour cell line growth inhibition, 48 h; in the data active = GI50 below about 0.43 µM; inactive = the rest
Just give me one of these, please: YES = active, NO = inactive

Some solved entries appear below for comparison.
INSERT INTO assay_data (molecule, test_system, class_label) VALUES
  ('C#CCOc1cccc(Nc2ncnc3cc(NC(=O)C=C)ccc23)c1', 'SF-268 CNS', 'NO'),
  ('CC(=O)CCc1ccc(Oc2c3c(nc4ccccc24)OCC3)cc1', 'SF-268 CNS', 'NO'),
  ('COC(=O)c1ccc(NC(=O)c2ccc(NC3=C(Cl)C(=O)N(Cc4ccccc4)C3=O)cc2)cc1', 'SF-268 CNS', 'NO'),
  ('CCCCSc1nc(N)c2cn[nH]c2n1', 'SF-268 CNS', 'NO'),
  ('Cc1c(Cl)cccc1NC(=O)c1sc2nc3c(cc2c1N)C(=O)CCC3', 'SF-268 CNS', 'YES'),
  ('COC(=O)c1c2c(c(C)[n+]([O-])c1C)C(=O)C(NCc1ccc(F)cc1)=CC2=O', 'SF-268 CNS', 'NO');

Inquiry: Hi, sorry to bother you, what did the test record for CC(C)(O)CCc1cccc(C(=O)c2cnn(-c3ccc(F)cc3)c2N)c1 ?
Reply text: NO

Inquiry: What classification did CN(C)CC1C(=O)O[C@H]2[C@H]1CC/C(COC(=O)NCc1ccc(Cn3c(=O)sn(CCCI)c3=O)cc1)=C\CC[C@@]1(C)O[C@@H]21 (stereo partly specified) end up with in this test?
Reply text: NO

Inquiry: Please let me know the test result on file for COc1cc(C2c3cc4c(cc3[C@@H](Nc3ccc([N+](=O)[O-])cc3)C3COC(=O)[C@H]23)OCO4)cc(OC)c1O (stereo partly specified) .
Reply text: NO

Inquiry: // outcome(item) with item = Cc1cc(-c2nc3n(c2/C=N/N=C(N)N)CCS3)c(C)s1
Reply text: NO

Inquiry: What was the test verdict on [Cl][Hg][c]1ccc2ccccc2c1 ?
Reply text: NO

* * *

Reported TGI values are given for each entry in this list.
# Test system: UO-31 renal
# assay_remarks: NCI tumour cell line growth inhibition, 48 h
Give just the number in µM; leave the unit off.

INSERT INTO results (compound, value_measured) VALUES
  ('CC(=O)OC1CC(OC2C(O)CC(OC3C(O)CC(OC4CCC5(C)C(CCC6C5CCC5(C)C(C7=CC(=O)OC7)CCC65O)C4)OC3C)OC2C)OC(C)C1OC1OC(CO)C(O)C(O)C1O (centres undefined)', 0.13);

Inquiry: Can you look up TGI on UO-31 renal for O=C(Cn1c(C(=O)/C=C/c2ccc(Cl)cc2)nc2ccccc21)c1ccc(Cl)cc1 ?
Reply text: 43

Inquiry: Request - read-out TGI | tested on UO-31 renal | compound CC(C)(C)C1=CC(=C2C=Cc3cc(O)ccc3O2)C=C(C(C)(C)C)C1=O
Reply text: 2.5

Inquiry: For the record CC1=CC(C)(C)Nc2ccc(Cc3ccc4c(c3)C(C)=CC(C)(C)N4)cc21 , what value of TGI is listed for UO-31 renal?
Reply text: 65.8

Values were extracted from PubChem BioAssay (NCI).
